Molecular target: Avi-KRAS G12D/Q25A (1-169) GppNHp/3×FLAG-PI3KCA (157-299) (Homo sapiens, UniProt P01116, G12D/Q25A)
Construct: Avi-KRAS G12D/Q25A (1-169) GppNHp
Sequence (P01116 1-169 isoform P01116-2 G12D/Q25A limits assumed): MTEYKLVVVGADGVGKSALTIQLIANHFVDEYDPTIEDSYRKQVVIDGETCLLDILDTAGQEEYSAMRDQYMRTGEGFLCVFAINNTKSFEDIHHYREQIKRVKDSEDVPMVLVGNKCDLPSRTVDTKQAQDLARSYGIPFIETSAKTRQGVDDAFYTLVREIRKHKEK
Assay: HTRF PI3KCA-KRAS G12D/Q25A-GppNHp disruption assay
Conditions: 1 h incubation
pIC50: −log10 of the molar value.
QUANTITY_NAME: pIC50

compound="Nc1nc2c(-c3c(C(F)(F)F)cc4c(N5CCNCC5)nc(OCC56CCCN5CC(F)(F)C6)nc4c3F)ccc(F)c2s1 (stereo not drawn)" reading="4.52 to 5.00"

Requested field: pIC50. Item: N#Cc1cc2c(N3CCNCC3)ncnc2c(F)c1-c1ccc(F)c2sc(N)nc12
4.52 to 5.00

Requested field: pIC50. Item: CN(c1nc(OCC23CCCN2CCC3)nc2c(F)c(-c3ccc(F)c4sc(N)nc34)c(-c3ccoc3)cc12)C1CN(C(N)=O)C1
4.52 to 5.00

Requested field: pIC50. Item: CN1CC(F)(F)C[C@H]1COc1nc(NCCN)c2cc(Cl)c(-c3ccc(F)c4sc(N)nc34)c(F)c2n1
4.52 to 5.00

Requested field: pIC50. Item: CN(c1nc(OC[C@@]23CCCN2C[C@H](F)C3)nc2c(F)c(-c3ccc(F)c4sc(N)c(C#N)c34)ccc12)[C@@H]1CCNC1
6.00 to 7.00

Requested field: pIC50. Item: CC1(C)CN2CCCC2(COc2nc(N3CCNCC3)c3cc(C(F)(F)F)c(-c4ccc(F)c5sc(N)nc45)c(F)c3n2)C1 (stereo not drawn)
5.00 to 6.00

Requested field: pIC50. Item: CN1CC(F)(F)C[C@H]1COc1nc(N2CCNCC2)c2cc(C(F)(F)F)c(-c3ccc(F)c4sc(N)nc34)c(F)c2n1
4.52 to 5.00

Requested field: pIC50. Item: C#Cc1cc2c(N3CCNCC3)ncnc2c(F)c1-c1ccc(F)c2sc(N)nc12
4.52 to 5.00

Requested field: pIC50. Item: C[C@H]1C[C@@H](N(C)c2nc(OC[C@@]34CCCN3C[C@H](F)C4)nc3c(F)c(-c4ccc(F)c5sc(N)nc45)c(C(F)(F)F)cc23)CN1
4.52 to 5.00

Requested field: pIC50. Item: Nc1nc2c(-c3c(C(F)(F)F)cc4c(N[C@@H]5CCNC5)nc(OC[C@@]56CCCN5C[C@H](F)C6)nc4c3F)ccc(F)c2s1 (atropisomer, axis not shown) [Compound 249]
4.52 to 5.00

Requested field: pIC50. Item: Fc1c(-c2cc(C(F)F)cc3ccccc23)c(C(F)(F)F)cc2c(N3CC4CCC(C3)N4)nc(OCC34CCCN3CCC4)nc12
4.52 to 5.00

Requested field: pIC50. Item: Nc1nc2c(-c3c(C(F)(F)F)cc4c(N5CCNCC5)nc(OC[C@@]56CCCN5C[C@H](F)C6)nc4c3F)ccc(F)c2s1
5.00 to 6.00

Requested field: pIC50. Item: N#Cc1cc2c(N3CC4CCC(C3)N4)nc(OC[C@@]34CCCN3C[C@H](F)C4)nc2c(F)c1-c1ccc(F)c2sc(N)nc12
6.00 to 7.00

Requested field: pIC50. Item: Nc1nc2c(-c3c(-c4ccoc4)cc4c(N5CC6CCC(C5)N6)nc(OCC56CCCN5CCC6)nc4c3F)ccc(F)c2s1
4.52 to 5.00

Requested field: pIC50. Item: CN1CCC[C@H]1COc1nc(N2CCN(C(=O)CN)CC2)c2cc(-c3ccoc3)c(-c3ccc(F)c4sc(N)nc34)c(F)c2n1
4.52 to 5.00

Requested field: pIC50. Item: C[C@@H]1CN(c2nc(OC[C@@]34CCCN3C[C@H](F)C4)nc3c(F)c(-c4ccc(F)c5sc(N)nc45)c(C(F)(F)F)cc23)CCN1
5.00 to 6.00

Requested field: pIC50. Item: CO[C@@H]1C[C@@H](COc2nc(N3CC4CCC(C3)N4)c3cc(C(F)(F)F)c(-c4ccc(F)c5sc(N)nc45)c(F)c3n2)N(C)C1
6.00 to 7.00

Requested field: pIC50. Item: CN(c1nc(OCC23CCCN2CC(C)(C)C3)nc2c(F)c(-c3ccc(F)c4sc(N)nc34)c(C(F)(F)F)cc12)C1CNC1 (stereo not drawn)
4.52 to 5.00

Requested field: pIC50. Item: CN(c1nc(OC[C@@]23CCCN2C[C@H](F)C3)nc2c(F)c(-c3ccc(F)c4sc(N)c(C#N)c34)c(C(F)(F)F)cc12)[C@H]1CNC[C@H]1F
6.00 to 7.00

====

Biological target: Avi-KRAS G12D/Q25A (1-169) GppNHp/3×FLAG-PI3KCA (157-299) (Homo sapiens, UniProt P01116, G12D/Q25A)
Construct: Avi-KRAS G12D/Q25A (1-169) GppNHp
Assay: HTRF PI3KCA-KRAS G12D/Q25A-GppNHp disruption assay
Settings: 1 h incubation
pIC50: −log10 of the molar value.
Listed here are compounds together with their documented pIC50.

cpd_smiles=CN1C[C@H](F)C[C@H]1COc1nc(NC2CN(C(=O)CN)C2)c2cc(-c3ccoc3)c(-c3ccc(F)c4sc(N)nc34)c(F)c2n1 quantity_name=pIC50 reading="4.52 to 5.00"

Requested field: pIC50. Item: CN1CCC[C@H]1COc1nc(N2CCNCC2)c2cc(C3(C#N)CCC3)c(-c3ccc(F)c4sc(N)nc34)c(F)c2n1
4.52 to 5.00

Requested field: pIC50. Item: NC(=O)N1CCN(c2nc(OCC34CCCN3CCC4)nc3c(F)c(-c4ccc(F)c5sc(N)nc45)c(C(F)(F)F)cc23)CC1
4.52 to 5.00

====

Target: Avi-KRAS G12D (1-169) GppNHp/RAF1 RBD-3×FLAG (52-151) (Homo sapiens, UniProt P01116, G12D)
Construct: Avi-KRAS G12D (1-169) GppNHp
Sequence (P01116 1-169 isoform P01116-2 G12D limits assumed): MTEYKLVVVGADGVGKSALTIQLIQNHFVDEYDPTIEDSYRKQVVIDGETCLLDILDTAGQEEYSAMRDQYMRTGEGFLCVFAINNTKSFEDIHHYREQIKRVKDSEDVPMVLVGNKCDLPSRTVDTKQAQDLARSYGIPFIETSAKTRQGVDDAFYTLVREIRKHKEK
Test: HTRF Raf1-KRAS G12D-GppNHp disruption assay
Conditions: 1 h incubation
pIC50: −log10 of the molar value.
Listed here are molecules together with their documented pIC50.

molecule="Nc1nc2c(-c3c(C(F)(F)F)cc4c(N[C@@H]5CCC6(CNC6)C5)nc(OCC56CCCN5CCC6)nc4c3F)ccc(F)c2s1 [Compound 334]" reading="5.00 to 6.00"
molecule="C[C@@H]1CN(c2nc(OC[C@@]34CCCN3C[C@@H](F)C4)nc3c(F)c(-c4ccc(F)c5sc(N)nc45)c(C(F)(F)F)cc23)CCN1 [Compound 225]" reading="5.00 to 6.00"

Okay, next one:
Requested field: pIC50. Item: N#Cc1c(N)sc2c(F)ccc(-c3c(OC(F)(F)F)cc4c(N5CC6CCC(C5)N6)nc(OC[C@@]56CCCN5C[C@H](F)C6)nc4c3F)c12 [Compound 320]
6.00 to 7.00

====

Listed here are compounds together with their documented pIC50.
Target: Avi-KRAS G12D/Q25A (1-169) GppNHp/3×FLAG-PI3KCA (157-299) (Homo sapiens, UniProt P01116, G12D/Q25A)
Construct: Avi-KRAS G12D/Q25A (1-169) GppNHp
Test: HTRF PI3KCA-KRAS G12D/Q25A-GppNHp disruption assay
Conditions: 1 h incubation
pIC50: −log10 of the molar value.

Requested field: pIC50. Item: Nc1nc2c(-c3c(C(F)(F)F)cc4c(N[C@H]5CCC[C@H](N)C5)nc(OCC56CCCN5CCC6)nc4c3F)ccc(F)c2s1 [Compound 328]
5.00 to 6.00

====

Listed here are compounds together with their documented IC50.
Biological target: Avi-KRAS G12D/Q25A (1-169) GppNHp/3×FLAG-PI3KCA (157-299) (Homo sapiens, UniProt P01116, G12D/Q25A)
Construct: Avi-KRAS G12D/Q25A (1-169) GppNHp
Experiment: HTRF PI3KCA-KRAS G12D/Q25A-GppNHp disruption assay
Details: 1 h incubation

These solved cases illustrate the format of a correct answer.
compound="CN(c1nc(OCC23CCCN2CCC3)nc2c(F)c(-c3ccc(F)c4sc(N)nc34)c(C(F)(F)F)cc12)[C@@H]1CCN(C(=O)CN)C1 (atropisomer, axis not shown) [Compound 276]" quantity_name=IC50 reading="1 to 10 µM"
compound="Nc1nc2c(-c3c(C(F)(F)F)cc4c(N5CCC[C@H]6NCC[C@H]65)nc(OCC56CCCN5CCC6)nc4c3F)ccc(F)c2s1 [Compound 332]" quantity_name=IC50 reading="1 to 10 µM"
compound="Nc1nc2c(-c3c(OC(F)(F)F)cc4c(N5CC6CCC(C5)N6)nc(OC[C@@]56CCCN5C[C@H](F)C6)nc4c3F)ccc(F)c2o1 [Compound 233]" quantity_name=IC50 reading="1 to 10 µM"
compound="Nc1nc2c(-c3c(C(F)(F)F)cc4c(N5CC6CCC(C5)N6)nc(OC[C@@]56CCCN5C[C@H](F)C6)nc4c3F)ccc(F)c2s1 (single isomer, unassigned) [Compound 245]" quantity_name=IC50 reading="≤ 0.1 µM"

Okay, next one:
Requested field: IC50. Item: NCC(=O)N1CC[C@@H]2[C@H]1CN2c1nc(OCC23CCCN2CCC3)nc2c(F)c(-c3ccc(F)c4sc(N)nc34)c(-c3ccoc3)cc12 [Compound 153]
10 to 30 µM
